The measured values listed here are drawn from ChEMBL document CHEMBL1128035.

Heads up, these compounds all have IC50 values measured for Prostaglandin G/H synthase 1 (Ovis aries, UniProt P05979).

COMPOUND | TESTED_TARGET | QUAL | IC50 / µM
Cc1ccc2c(n1)Oc1ccc(C(C)C(=O)O)cc1C2 (centres undefined) | Prostaglandin G/H synthase 1 (Ovis aries, UniProt P05979) | = | 0.32
CC(C(=O)O)c1ccc2c(c1)Cc1cccnc1O2 (centres undefined) [PRANOPROFEN] | Prostaglandin G/H synthase 1 (Ovis aries, UniProt P05979) | = | 3.1
CCCc1ccc2c(n1)Oc1ccc(C(C)C(=O)O)cc1C2 (centres undefined) | Prostaglandin G/H synthase 1 (Ovis aries, UniProt P05979) | > | 100
Cc1cnc2c(c1)Cc1cc(C(C)C(=O)O)ccc1O2 (centres undefined) | Prostaglandin G/H synthase 1 (Ovis aries, UniProt P05979) | = | 11

====

biological target: Prostaglandin G/H synthase 1 (Rattus norvegicus); assay: Inhibitory activity against COX-1 from rat peritoneal leukocytes, measured by PGE-2 produced (enzyme immunoassay)
Sequence (Q63921 whole entry): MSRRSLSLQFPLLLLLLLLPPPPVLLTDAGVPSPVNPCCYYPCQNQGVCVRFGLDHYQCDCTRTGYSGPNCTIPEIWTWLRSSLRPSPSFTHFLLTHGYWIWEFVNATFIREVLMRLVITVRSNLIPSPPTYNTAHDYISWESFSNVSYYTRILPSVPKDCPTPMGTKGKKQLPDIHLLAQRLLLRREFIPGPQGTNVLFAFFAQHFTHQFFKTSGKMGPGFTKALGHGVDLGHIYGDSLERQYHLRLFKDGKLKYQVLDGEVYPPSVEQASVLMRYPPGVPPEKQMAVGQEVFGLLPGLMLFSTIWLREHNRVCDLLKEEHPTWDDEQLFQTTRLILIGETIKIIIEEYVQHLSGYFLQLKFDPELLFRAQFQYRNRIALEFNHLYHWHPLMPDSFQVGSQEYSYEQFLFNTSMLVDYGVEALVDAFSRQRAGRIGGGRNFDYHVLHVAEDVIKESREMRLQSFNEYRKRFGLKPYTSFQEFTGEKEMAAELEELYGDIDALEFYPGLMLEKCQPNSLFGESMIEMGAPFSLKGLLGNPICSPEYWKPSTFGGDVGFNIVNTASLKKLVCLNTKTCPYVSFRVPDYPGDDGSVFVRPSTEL
TEST_READOUT: IC50 (nM)

COMPOUND | MEAS_VALUE
Cc1ccc2c(n1)Oc1ccc(C(C)C(=O)O)cc1C2 (stereo unspecified) | 30

====

test: Partition coefficient measured in n-octanol/ pH 7.4 phosphate buffer; assay type: physicochemical

MOLECULE | logD
CC(C(=O)O)c1ccc2c(c1)Cc1cccnc1O2 (configuration not stated) [PRANOPROFEN] | -0.72
Cc1cnc2c(c1)Cc1cc(C(C)C(=O)O)ccc1O2 (configuration not stated) | 0.03
CCc1ccc2c(n1)Oc1ccc(C(C)C(=O)O)cc1C2 (configuration not stated) | 0.45
CC(C)c1ccc2c(n1)Oc1ccc(C(C)C(=O)O)cc1C2 (configuration not stated) | 0.67
Cc1ccc2c(n1)Oc1ccc(C(C)C(=O)O)cc1C2 (configuration not stated) | -0.11
Cc1ccnc2c1Cc1cc(C(C)C(=O)O)ccc1O2 (configuration not stated) | -0.17
CCCc1ccc2c(n1)Oc1ccc(C(C)C(=O)O)cc1C2 (configuration not stated) | 1.08
